// data source = patent US9629863B2

Molecular target: Cdk5/p35 (Homo sapiens, UniProt Q00535)
Sequence (Q15078 whole entry partner, species assumed, one chain of several): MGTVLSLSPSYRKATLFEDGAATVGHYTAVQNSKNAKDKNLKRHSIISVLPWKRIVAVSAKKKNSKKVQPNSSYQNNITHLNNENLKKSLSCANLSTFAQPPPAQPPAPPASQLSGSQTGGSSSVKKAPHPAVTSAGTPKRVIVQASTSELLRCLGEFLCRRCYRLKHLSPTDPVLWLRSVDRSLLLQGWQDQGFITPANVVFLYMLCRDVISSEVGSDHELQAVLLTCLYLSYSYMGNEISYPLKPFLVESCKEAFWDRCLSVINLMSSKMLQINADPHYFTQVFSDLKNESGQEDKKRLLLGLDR
Assay: FRET-based Z'-LYTE Cdk5 kinase assay, Cdk5/p35
Assay type: biochemical
Conditions: compound 30 μM, 30 ng/ml Cdk5/p35, FIG. 3
Recorded inhibition at 30 µM values for a group of compounds are listed next.

Below: 5 compounds and their reported inhibition at 30 µM.
{"COMPOUND": "O=C(O)c1cc(O)c(O)c(O)c1 [Compound F199-C4, gallic acid]", "VALUE REPORTED": "25 to 50%"}
{"COMPOUND": "COc1ccc(-c2oc3c(O)c(O)cc(O)c3c(=O)c2O)cc1 [Compound F199-C23, 4′-methoxyherbacetin]", "VALUE REPORTED": "50 to 75%"}
{"COMPOUND": "O=C(OCC1OC(Oc2ccc(O)cc2)C(O)C(O)C1O)c1cc(O)c(O)c(O)c1 (stereo not shown) [Compound F199-C34, 6-O-galloyl arbutin]", "VALUE REPORTED": "50 to 75%"}
{"COMPOUND": "CC[C@H](CC[C@@H](C)[C@H]1CC[C@H]2[C@@H]3CC=C4C[C@@H](O[C@@H]5O[C@H](CO)[C@@H](O)[C@H](O)[C@H]5O)CC[C@]4(C)[C@H]3CC[C@]12C)C(C)C [Compound F199-C1, daucosterol, reference compound]", "VALUE REPORTED": "< 25%"}
{"COMPOUND": "O=C(OCC1OC(OC/C=C/c2ccccc2)C(O)C(O)C1O)c1cc(O)c(O)c(O)c1 (stereo not shown) [Compound F199-C22, 6-O-galloyl rosin]", "VALUE REPORTED": "< 25%"}

Form field inhibition at 30 µM, entry CC1OC(Oc2c(O)cc(O)c3c(=O)c(O)c(-c4ccc(O)cc4)oc23)C(O)C(O)C1O (stereo not shown) [Compound F199-C16, litvinolin] : 50 to 75%

Form field inhibition at 30 µM, entry O=c1c(O)c(-c2ccc(O)cc2)oc2c(OC3OCC(O)C(O)C3O)c(O)cc(O)c12 (stereo not shown) [Compound F199-C6, rhodalin] : 25 to 50%

----------
Target: Cdk5/p25 (Homo sapiens, UniProt Q00535)
Sequence (Q00535 whole entry, species assumed): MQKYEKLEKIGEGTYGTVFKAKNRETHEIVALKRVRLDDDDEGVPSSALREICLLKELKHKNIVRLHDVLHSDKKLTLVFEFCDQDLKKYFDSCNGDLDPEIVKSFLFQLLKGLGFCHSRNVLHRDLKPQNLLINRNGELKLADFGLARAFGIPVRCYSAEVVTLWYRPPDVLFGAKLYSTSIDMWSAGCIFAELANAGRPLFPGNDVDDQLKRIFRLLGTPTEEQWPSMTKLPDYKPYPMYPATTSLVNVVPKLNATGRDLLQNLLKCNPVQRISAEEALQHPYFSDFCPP
Sequence (Q15078 99-307 partner limits assumed, species assumed): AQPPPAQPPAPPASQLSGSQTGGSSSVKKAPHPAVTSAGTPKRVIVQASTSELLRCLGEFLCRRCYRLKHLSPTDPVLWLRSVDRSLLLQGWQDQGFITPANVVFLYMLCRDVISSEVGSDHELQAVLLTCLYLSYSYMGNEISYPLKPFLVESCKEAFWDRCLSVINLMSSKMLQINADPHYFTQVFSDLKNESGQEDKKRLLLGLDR
Assay: FRET-based Z'-LYTE Cdk5 kinase assay, Cdk5/p25
Assay type: biochemical
Details: compound 30 μM, 30 ng/ml Cdk5/p25, FIG. 3
METRIC NAME: inhibition at 30 µM

Below: 2 molecules and their reported inhibition at 30 µM.
{"MOLECULE": "O=C(O)c1cc(O)c(O)c(O)c1", "inhibition at 30 µM": "25 to 50%"}
{"MOLECULE": "CC[C@H](CC[C@@H](C)[C@H]1CC[C@H]2[C@@H]3CC=C4C[C@@H](O[C@@H]5O[C@H](CO)[C@@H](O)[C@H](O)[C@H]5O)CC[C@]4(C)[C@H]3CC[C@]12C)C(C)C [Compound F199-C1, daucosterol, reference compound]", "inhibition at 30 µM": "< 25%"}

We next turn to a different molecule, shown below.
Form field inhibition at 30 µM, entry COc1ccc(-c2oc3c(O)c(O)cc(O)c3c(=O)c2O)cc1 : 50 to 75%

----------
Molecular target: Cdk5/p25 (Homo sapiens, UniProt Q00535)
Assay: FRET-based Z'-LYTE Cdk5 kinase assay, Cdk5/p25
Assay type: biochemical
Settings: compound 30 μM, 30 ng/ml Cdk5/p25, FIG. 3
Recorded inhibition at 30 µM values for a group of molecules are listed next.

Below: 3 molecules and their reported inhibition at 30 µM.
{"MOLECULE": "O=C(OCC1OC(Oc2ccc(O)cc2)C(O)C(O)C1O)c1cc(O)c(O)c(O)c1 (stereo not shown)", "inhibition at 30 µM": "50 to 75%"}
{"MOLECULE": "O=c1c(O)c(-c2ccc(O)cc2)oc2c(OC3OCC(O)C(O)C3O)c(O)cc(O)c12 (stereo not shown)", "inhibition at 30 µM": "25 to 50%"}
{"MOLECULE": "O=C(OCC1OC(OC/C=C/c2ccccc2)C(O)C(O)C1O)c1cc(O)c(O)c(O)c1 (stereo not shown)", "inhibition at 30 µM": "< 25%"}

Form field inhibition at 30 µM, entry CC1OC(Oc2c(O)cc(O)c3c(=O)c(O)c(-c4ccc(O)cc4)oc23)C(O)C(O)C1O (stereo not shown) : 50 to 75%
